- Test system: KM12
- assay notes: NCI tumour cell line growth inhibition, 48 h
The source made the active and inactive calls. Cut-off read from the data, not from the text of the source: active = GI50 up to about 1.1 µM and inactive = higher.
Please reply with one of these outcomes: active, inactive

Look up the recorded call for Cc1nc2ccc([N+](=O)[O-])cc2c(=O)n1C(=S)Nc1cccc(Cl)c1 in this test.
inactive

Likewise for CNS(=O)(=O)NNS(=O)(=O)c1ccc(OC)cc1 ?
inactive

Likewise for Cc1cccc(-c2cc(O)c3cccnc3n2)c1 ?
active

Likewise for C=CCc1c(Cl)nc(Cl)nc1Cl ?
active

Likewise for N#Cc1cc([N+](=O)[O-])ccc1NC(=O)C(=O)C(C(=O)/C=C/c1ccccc1)C1OC(=O)c2ccccc21 (stereo unspecified) ?
inactive

Likewise for Cc1ccc2c(O)cc(-c3ccc(C)s3)nc2n1 ?
active

---

Exercise: for every item that follows, state its recorded GI50.
- System: A549
- assay notes: NCI tumour cell line growth inhibition, 48 h
Calls of active or inactive are those of the source. Cut-off read from the data, not from the text of the source: active = GI50 up to about 1.1 µM and inactive = higher.

Look at this compound and give its reported GI50. COc1ccc2c3c([nH]c2c1[N+](=O)[O-])C(C)=NCC3
77.4 µM (inactive)

Likewise for NC1(C(=O)O)CCCC1C(=O)O (centres undefined) ?
> 100 µM (inactive)

Likewise for CSC1=C(C)S/C(=C\c2ccc(/C=C3\SC(C)=C(SC)S3)cc2)S1 ?
> 100 µM (inactive)

Likewise for CCCN1C(=O)/C(=C\c2ccc(OC)c(OC)c2)S/C1=N\c1ccccc1 ?
> 100 µM (inactive)

---

- System: SK-MEL-5
- assay notes: NCI tumour cell line growth inhibition, 48 h
Active and inactive are the calls of the source. No stated cut-off is given here; in the data, active = GI50 up to about 1.1 µM and inactive = higher.
Please reply with one of these outcomes: T = active, F = inactive

Look up the recorded call for CNS(=O)(=O)NNS(=O)(=O)c1ccc(OC)cc1 in this test.
F

Likewise for CC/C(Cl)=N\OC(=O)Nc1ccc(C#N)cc1 ?
F

Likewise for Cc1cc(C(=O)NCCN(C)C)c2nc3ccccc3nc2c1 ?
F

Likewise for CCC(C)C(NC(=O)c1cccc2c(=O)c3ccccc3[nH]c12)C(=O)O (stereo unspecified) ?
F

Likewise for C/C(=N\Nc1ccc([N+](=O)[O-])cc1[N+](=O)[O-])c1ccc2ccccc2n1 ?
F

Likewise for C=CCN(N=O)C(=O)N(CCCCC(NC(C)=O)C(=O)NCc1ccccc1)Cc1ccccc1 (stereo unspecified) ?
F

Likewise for COC(=O)C1(C(=O)OC)CC(=O)c2c(OC(=O)c3cccc(OC)c3C#N)ccc(OC(=O)c3cccc(OC)c3C#N)c2C1 ?
F

Likewise for O=C1c2ccccc2C(=O)c2c1ccc1c2OCO1 ?
F

Likewise for CCO/C=N/NC(=O)CSc1nc2ccc(I)cc2c(=O)n1Cc1ccccc1 ?
F

Likewise for Cc1cccc(/N=N/C(=N\NC(=O)c2cc(Cl)ccc2O)c2ccc(N(CCC#N)CCC#N)cc2C)c1 ?
F

Likewise for O=C1CC[N+]2=Cc3ccccc3O[B-]2(c2ccccc2)O1 (stereo unspecified) ?
F

Likewise for CC(=O)NNC1=NN(C(C)=O)C2(S1)C(=O)Nc1ccc(C)cc12 (stereo unspecified) ?
F

Likewise for Cc1ccc2c(=O)cc(-c3cccc(F)c3)[nH]c2n1 ?
T

Likewise for Nn1c(CCCCCCCCc2nnc(COc3ccc(Cl)cc3)n2N)nnc1COc1ccc(Cl)cc1 ?
F

Likewise for [N-]=[N+]=Nc1c(-c2ccccc2)c(Cl)nc2ccccc12 ?
F

Likewise for C/C(=N\NC(=S)NC(C)(C)C)c1nc2cccnc2[nH]1 ?
F
